Target: RdRp of the influenza virus (replicon activity) (Influenza A virus, UniProt P03431)
Sequence (P03431 whole entry, looked up): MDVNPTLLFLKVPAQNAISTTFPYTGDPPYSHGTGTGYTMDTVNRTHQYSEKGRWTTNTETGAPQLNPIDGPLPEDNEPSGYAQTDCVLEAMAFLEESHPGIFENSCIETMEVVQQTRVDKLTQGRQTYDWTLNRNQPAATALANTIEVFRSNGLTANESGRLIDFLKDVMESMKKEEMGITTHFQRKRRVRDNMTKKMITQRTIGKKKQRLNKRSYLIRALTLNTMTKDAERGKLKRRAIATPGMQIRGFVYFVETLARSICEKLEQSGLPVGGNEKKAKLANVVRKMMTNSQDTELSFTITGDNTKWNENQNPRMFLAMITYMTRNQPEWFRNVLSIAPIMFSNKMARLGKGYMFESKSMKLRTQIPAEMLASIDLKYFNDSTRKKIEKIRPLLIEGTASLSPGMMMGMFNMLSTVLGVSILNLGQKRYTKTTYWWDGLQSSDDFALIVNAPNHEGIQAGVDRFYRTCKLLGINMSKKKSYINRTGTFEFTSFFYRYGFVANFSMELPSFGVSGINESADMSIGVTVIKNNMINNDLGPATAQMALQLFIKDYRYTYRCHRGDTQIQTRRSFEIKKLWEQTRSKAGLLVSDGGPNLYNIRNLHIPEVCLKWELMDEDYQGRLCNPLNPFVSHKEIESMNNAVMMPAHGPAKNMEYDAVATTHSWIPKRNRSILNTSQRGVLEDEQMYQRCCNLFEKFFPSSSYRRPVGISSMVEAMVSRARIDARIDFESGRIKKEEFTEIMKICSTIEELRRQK
Test: Influenza virus RdRp replicon reporter (Luc) assay in transduced 293T cells
Format: cell-based, Influenza A/PR/8/34 (H1N1)
Details: Methotrexate concentration 0.31 μM; read-out: T-705 50% inhibitory concentration
assayMetric: pIC50
Would you please state pIC50, meaning minus log10 of the concentration in mol/L, as a bare number?

// pIC50 lookup, key: NC(=O)c1nc(F)cnc1O [T-705, 6-Fluoro-3-hydroxy-2-pyrazinecarboxamide]
4.39

====

Target: UniProt P03431
Assay: Influenza virus RdRp replicon reporter (Luc) assay in transduced 293T cells
Format: cell-based, Influenza A/PR/8/34 (H1N1)
Details: Pralatrexate concentration 10 μM; read-out: T-705 50% inhibitory concentration
assayMetric: IC50 (µM)
Write the value in µM as a bare number.

API: value(readout= IC50, system= UniProt P03431, query= NC(=O)c1nc(F)cnc1O [T-705, 6-Fluoro-3-hydroxy-2-pyrazinecarboxamide] )
22
